System: Escherichia coli TOP10
Assay: shrunken log2 fold change of peptide-encoding DNA abundance (4.5 h post-induction vs induction); higher = less antimicrobial activity (less host growth inhibition)
Settings: time post-induction: 4.5 h; library: site-saturation at positions 5, 18, 19, 20
outcome measure: shrunken log2 fold change
Give bare numbers.

The cases that follow already have their shrunken log2 fold change on record.
RRIRFRPPRLPRPRPRPKESPRP	-0.0731
RRIRKRPPRLPRPRPRPYLRPRP	-0.0481
RRIRWRPPRLPRPRPRPLKGPRP	0.0212

Hi there! I need shrunken log2 fold change for each item below, if you can.
1. RRIRHRPPRLPRPRPRPFTLPRP
2. RRIRQRPPRLPRPRPRPCWIPRP
3. RRIRCRPPRLPRPRPRPRLFPRP

Response given:
-0.312
-0.209
0.437

---

So I've got a bunch of sequences here, and I need their shrunken log2 fold change values.
Tested on: Escherichia coli TOP10
Test: shrunken log2 fold change of peptide-encoding DNA abundance (4.5 h post-induction vs induction); higher = less antimicrobial activity (less host growth inhibition)
Details: time post-induction: 4.5 h; library: site-saturation at positions 5, 18, 19, 20
Give bare numbers.

// known answers, use as guide
RRIRSRPPRLPRPRPRPIKHPRP	-0.0703
RRIRHRPPRLPRPRPRPYMVPRP	-0.0357

Please state, for each entry, its recorded shrunken log2 fold change.
1. RRIRPRPPRLPRPRPRPHITPRP
2. RRIRRRPPRLPRPRPRPRANPRP
3. RRIRCRPPRLPRPRPRPQAIPRP
4. RRIRKRPPRLPRPRPRPATMPRP
5. RRIRHRPPRLPRPRPRPAHWPRP
6. RRIRNRPPRLPRPRPRPHPSPRP
7. RRIRHRPPRLPRPRPRPWIDPRP

Response given:
1. -0.759
2. 0.954
3. -0.205
4. 0.49
5. -0.179
6. -0.25
7. -0.00448

Working through the 4 sequences below one at a time, give shrunken log2 fold change for each.
1. RRIRCRPPRLPRPRPRPEFIPRP
2. RRIRGRPPRLPRPRPRPGWQPRP
3. RRIRVRPPRLPRPRPRPRAWPRP
4. RRIRGRPPRLPRPRPRPADPPRP

Response given:
-0.551
0.0826
0.086
0.585

Please supply shrunken log2 fold change for each of the following items, keeping them in order.
1. RRIRMRPPRLPRPRPRPCPCPRP
2. RRIRVRPPRLPRPRPRPIHTPRP
3. RRIRIRPPRLPRPRPRPAVVPRP
4. RRIRGRPPRLPRPRPRPTVEPRP
5. RRIRSRPPRLPRPRPRPAGWPRP

Response given:
0.495
-0.305
-0.0892
1.27
0.795

Could you report shrunken log2 fold change for every entry in the following list?
1. RRIRPRPPRLPRPRPRPNHLPRP
2. RRIRGRPPRLPRPRPRPYVEPRP

Response given:
1: -0.601; 2: -0.00776

---

Test system: Escherichia coli TOP10;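 also: peptides expressed intracellularly from a pBAD plasmid library in pooled LB shake-flask culture, induced with 0.3% L-arabinose, DNA abundance read by NGS, three biological replicates, DESeq2 with apeglm shrinkage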
Test: shrunken log2 fold change of peptide-encoding DNA abundance (4.5 h post-induction vs induction); higher = less antimicrobial activity (less host growth inhibition)
Details: time post-induction: 4.5 h; library: site-saturation at positions 5, 18, 19, 20
Would you please tag the item criterion met when its shrunken log2 fold change is -0.06 or above, and criterion not met when it is below?

# example entries with known answers
RRIRHRPPRLPRPRPRPNAFPRP	criterion not met
RRIRLRPPRLPRPRPRPHNQPRP	criterion not met
RRIRARPPRLPRPRPRPEVNPRP	criterion met
RRIRARPPRLPRPRPRPTDCPRP	criterion met
RRIRCRPPRLPRPRPRPAQNPRP	criterion met
RRIRKRPPRLPRPRPRPHQSPRP	criterion met
RRIRGRPPRLPRPRPRPKPMPRP	criterion met
RRIRIRPPRLPRPRPRPAGYPRP	criterion met
RRIRLRPPRLPRPRPRPEKMPRP	criterion not met
RRIRGRPPRLPRPRPRPCREPRP	criterion not met

Challenge: Answer whether shrunken log2 fold change of RRIRQRPPRLPRPRPRPMDNPRP is greater than or equal to -0.06.
Response given: criterion not met

Challenge: Given RRIRARPPRLPRPRPRPHHQPRP , state whether its shrunken log2 fold change is at least -0.06.
Response given: criterion met

Challenge: Hi, just wondering whether RRIRTRPPRLPRPRPRPILMPRP shows shrunken log2 fold change of -0.06 or higher.
Response given: criterion not met

Challenge: hey, is shrunken log2 fold change for this one >= -0.06? RRIRQRPPRLPRPRPRPEGWPRP
Response given: criterion met
